The reported measurements were obtained from PubChem BioAssay AID1845194.

Property: viability, T/C; scope: individual compounds
Tested on: 287954-098-R-J1 tumor spheroid viability
RUN DESCRIPTION: Anticancer human tumor 287954-098-R-J1 patient-derived Ewing sarcoma cell line growth inhibition
CONDITION SET: second compound 0.03 µM; first compound 3.16 µM; active compounds read low; spheroids with HUVEC and MSC
I only need the number, in %, no unit after it.

CC(C)n1c(=O)n(C)c2cnc3cc(F)c(-c4ccc(OCCCN5CCCCC5)nc4)cc3c21 + CC[C@@]1(O)C(=O)OCc2c1cc1n(c2=O)Cc2cc3c(CN(C)C)c(O)ccc3nc2-1 | 1.35
COc1ccc([C@@H](O)c2cc(-c3ncnc4cc(N5CCOCC5)ccc34)c(F)cc2Cl)nn1 + CC[C@@]1(O)C(=O)OCc2c1cc1n(c2=O)Cc2cc3c(CN(C)C)c(O)ccc3nc2-1 | 0.97
[2H]c1nc(C)nc([2H])c1-c1cc(NC[C@@H](C)c2cccc3c(C(=O)NC)ccnc23)ncn1 + CC[C@@]1(O)C(=O)OCc2c1cc1n(c2=O)Cc2cc3c(CN(C)C)c(O)ccc3nc2-1 | 15.7

Problem: Answer with viability, T/C of CC1COCCN1c1cc(-c2ccnn2C)c2ccnc(-c3ccn[nH]3)c2n1 (stereo unspecified) + CC[C@@]1(O)C(=O)OCc2c1cc1n(c2=O)Cc2cc3c(CN(C)C)c(O)ccc3nc2-1 measured for 287954-098-R-J1 tumor spheroid viability.
Result: 1.17

Problem: Jot down viability, T/C (287954-098-R-J1 tumor spheroid viability) of COc1cc(C)[nH]c(=O)c1CN1CCc2c(Cl)cc(C(OC)C3COC3)c(Cl)c2C1=O (stereo unspecified) + CC[C@@]1(O)C(=O)OCc2c1cc1n(c2=O)Cc2cc3c(CN(C)C)c(O)ccc3nc2-1 .
Result: 28

Problem: Lab note: record viability, T/C of Cc1cc(C)c(CNC(=O)c2cc(-c3ccc(CN4CCOCC4)cc3)cc3c2cnn3C2CCCC2)c(=O)[nH]1 + CC[C@@]1(O)C(=O)OCc2c1cc1n(c2=O)Cc2cc3c(CN(C)C)c(O)ccc3nc2-1 tested on 287954-098-R-J1 tumor spheroid viability.
Result: 28.2

====

Measured viability, T/C of individual entries
Test system: 287954-098-R-J1 tumor spheroid viability
RUN DESCRIPTION: Anticancer human tumor 287954-098-R-J1 cell line growth inhibition
CONDITION SET: second compound 0.03 µM; first compound 0.0949 µM; active compounds read low; spheroids with HUVEC and MSC

Problem: Answer with reported viability, T/C of Cc1sc2c(c1C)C(c1ccc(Cl)cc1)=NC(CC(=O)Nc1ccc(O)cc1)c1nnc(C)n1-2 (centres undefined) + CC[C@@]1(O)C(=O)OCc2c1cc1n(c2=O)Cc2cc3c(CN(C)C)c(O)ccc3nc2-1
Result: 1.99%

Problem: Consider the compound CNCc1ccc(-c2cc(-c3nc(-c4ccc(S(=O)(=O)C(C)C)cc4)cnc3N)on2)cc1 + CC[C@@]1(O)C(=O)OCc2c1cc1n(c2=O)Cc2cc3c(CN(C)C)c(O)ccc3nc2-1 and give its recorded viability, T/C.
Result: 2.05%

Problem: Supply measured viability, T/C of Cn1ncnc1[C@H]1c2n[nH]c(=O)c3cc(F)cc(c23)N[C@@H]1c1ccc(F)cc1 + CC[C@@]1(O)C(=O)OCc2c1cc1n(c2=O)Cc2cc3c(CN(C)C)c(O)ccc3nc2-1 in your reply.
Result: 2.46%

Problem: Please supply the value of reported viability, T/C for the item O=C(c1cc(Cc2n[nH]c(=O)c3ccccc23)ccc1F)N1CCN(C(=O)C2CC2)CC1 + CC[C@@]1(O)C(=O)OCc2c1cc1n(c2=O)Cc2cc3c(CN(C)C)c(O)ccc3nc2-1
Result: 2.21%

====

Tested on: 287954-098-R-J1 tumor spheroid viability
RUN DESCRIPTION: Anticancer human tumor 287954-098-R-J1 cell line growth inhibition; active = viability on the fitted dose curve at most 10% of control; inactive = the rest;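 also: luminescent signal taken as surrogate of viable cell content; spheroids exposed to compound for 7 days before viability readout; 100% = DMSO vehicle control viability and lower means growth inhibition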
CONDITION SET: second compound 100 µM; first compound 0.949 µM; spheroids with HUVEC and MSC
Respond only with the outcome that fits, drawn from active, inactive

Cn1ncnc1[C@H]1c2n[nH]c(=O)c3cc(F)cc(c23)N[C@@H]1c1ccc(F)cc1 + Cn1nnc2c(C(N)=O)ncn2c1=O | active

Problem: Test call for this compound, please: CNCc1ccc(-c2cc(-c3nc(-c4ccc(S(=O)(=O)C(C)C)cc4)cnc3N)on2)cc1 + Cn1nnc2c(C(N)=O)ncn2c1=O
Result: active

Problem: Write down the call the test reported for this compound. Item: O=C(c1cc(Cc2n[nH]c(=O)c3ccccc23)ccc1F)N1CCN(C(=O)C2CC2)CC1 + Cn1nnc2c(C(N)=O)ncn2c1=O
Result: inactive

Problem: Please share the test call associated with Cc1sc2c(c1C)C(c1ccc(Cl)cc1)=NC(CC(=O)Nc1ccc(O)cc1)c1nnc(C)n1-2 (centres undefined) + Cn1nnc2c(C(N)=O)ncn2c1=O .
Result: active

====

Listing of recorded viability, T/C by entry.
Tested on: 287954-098-R-J1 tumor spheroid viability
RUN DESCRIPTION: Anticancer human tumor 287954-098-R-J1 cell line growth inhibition;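 also: luminescent signal taken as surrogate of viable cell content; spheroids exposed to compound for 7 days before viability readout; 100% = DMSO vehicle control viability and lower means growth inhibition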
CONDITION SET: second compound 0.3 µM; first compound 0.1 µM; active compounds read low; spheroids with HUVEC and MSC
Write it as a number; the unit % goes unstated.

Guide cases for viability, T/C, answers given:
COc1cc(C)[nH]c(=O)c1CN1CCc2c(Cl)cc(C(OC)C3COC3)c(Cl)c2C1=O (stereo not drawn) + CC[C@@]1(O)C(=O)OCc2c1cc1n(c2=O)Cc2cc3c(CN(C)C)c(O)ccc3nc2-1 | 1.47
[2H]c1nc(C)nc([2H])c1-c1cc(NC[C@@H](C)c2cccc3c(C(=O)NC)ccnc23)ncn1 + CC[C@@]1(O)C(=O)OCc2c1cc1n(c2=O)Cc2cc3c(CN(C)C)c(O)ccc3nc2-1 | 0.5

// next entry
Problem: Read off the recorded viability, T/C for COc1ccc([C@@H](O)c2cc(-c3ncnc4cc(N5CCOCC5)ccc34)c(F)cc2Cl)nn1 + CC[C@@]1(O)C(=O)OCc2c1cc1n(c2=O)Cc2cc3c(CN(C)C)c(O)ccc3nc2-1
Result: 1.01

====

Tested on: 287954-098-R-J1 tumor spheroid viability
RUN DESCRIPTION: Anticancer human tumor 287954-098-R-J1 cell line growth inhibition;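 also: luminescent signal taken as surrogate of viable cell content; spheroids exposed to compound for 7 days before viability readout; 100% = DMSO vehicle control viability and lower means growth inhibition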
CONDITION SET: second compound 30 pM; first compound 0.316 µM; active compounds read low; spheroids with HUVEC and MSC
Catalogue of viability, T/C readings, one per entry.
Supply the numeric figure in %, leaving out any unit text.

Solved cases (3 shown):
[2H]c1nc(C)nc([2H])c1-c1cc(NC[C@@H](C)c2cccc3c(C(=O)NC)ccnc23)ncn1 + COc1cc2c(cc1O)CCNC21CSC2c3c(OC(C)=O)c(C)c4c(c3C(COC1=O)N1C(O)C3Cc5cc(C)c(OC)c(O)c5C(C21)N3C)OCO4 | 104
Cc1cc(C)c(CNC(=O)c2cc(-c3ccc(CN4CCOCC4)cc3)cc3c2cnn3C2CCCC2)c(=O)[nH]1 + COc1cc2c(cc1O)CCNC21CSC2c3c(OC(C)=O)c(C)c4c(c3C(COC1=O)N1C(O)C3Cc5cc(C)c(OC)c(O)c5C(C21)N3C)OCO4 | 106
COc1cc(C)[nH]c(=O)c1CN1CCc2c(Cl)cc(C(OC)C3COC3)c(Cl)c2C1=O (centres undefined) + COc1cc2c(cc1O)CCNC21CSC2c3c(OC(C)=O)c(C)c4c(c3C(COC1=O)N1C(O)C3Cc5cc(C)c(OC)c(O)c5C(C21)N3C)OCO4 | 87.3

Attention now shifts to the item below.
Problem: Report viability, T/C for CC1COCCN1c1cc(-c2ccnn2C)c2ccnc(-c3ccn[nH]3)c2n1 (centres undefined) + COc1cc2c(cc1O)CCNC21CSC2c3c(OC(C)=O)c(C)c4c(c3C(COC1=O)N1C(O)C3Cc5cc(C)c(OC)c(O)c5C(C21)N3C)OCO4
Result: 7.3

====

System: 287954-098-R-J1 tumor spheroid viability
RUN DESCRIPTION: Anticancer human tumor 287954-098-R-J1 cell line growth inhibition;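 also: luminescent signal taken as surrogate of viable cell content; spheroids exposed to compound for 7 days before viability readout; 100% = DMSO vehicle control viability and lower means growth inhibition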
CONDITION SET: second compound 3.16 µM; first compound 0.0316 µM; active compounds read low; spheroids with HUVEC and MSC
Below, each of the molecules is paired with its reported viability, T/C value.
Express the result in % but write the number alone.

CC(C)n1c(=O)n(C)c2cnc3cc(F)c(-c4ccc(OCCCN5CCCCC5)nc4)cc3c21 + Cn1nnc2c(C(N)=O)ncn2c1=O | 106
COc1cc(C)[nH]c(=O)c1CN1CCc2c(Cl)cc(C(OC)C3COC3)c(Cl)c2C1=O (stereo unspecified) + Cn1nnc2c(C(N)=O)ncn2c1=O | 105
CC1COCCN1c1cc(-c2ccnn2C)c2ccnc(-c3ccn[nH]3)c2n1 (stereo unspecified) + Cn1nnc2c(C(N)=O)ncn2c1=O | 120
COc1ccc([C@@H](O)c2cc(-c3ncnc4cc(N5CCOCC5)ccc34)c(F)cc2Cl)nn1 + Cn1nnc2c(C(N)=O)ncn2c1=O | 105
Cc1cc(C)c(CNC(=O)c2cc(-c3ccc(CN4CCOCC4)cc3)cc3c2cnn3C2CCCC2)c(=O)[nH]1 + Cn1nnc2c(C(N)=O)ncn2c1=O | 105

Problem: Provide measured viability, T/C value, entry: [2H]c1nc(C)nc([2H])c1-c1cc(NC[C@@H](C)c2cccc3c(C(=O)NC)ccnc23)ncn1 + Cn1nnc2c(C(N)=O)ncn2c1=O
Result: 106
